src = ChEMBL document CHEMBL5030539

- test name: Inhibition of wild type EFGR expressed in human LoVo cell line assessed as inhibition of EGF-stimulated EGFR phosphorylation potency measured after 2 hrs by HRTF assay
- Type: functional
Label Satisfied when IC50 < 1000 nM; otherwise Not satisfied.

>  <molecule>
COc1cc(N2CCC(N(C)C)CC2)c(-c2cnn(C)c2)cc1Nc1ncc(Cl)c(Nc2ccccc2P(C)(C)=O)n1

>  <class name>
Satisfied

$$$$
>  <molecule>
COc1cc(N2CCC(N(C)C)CC2)c(-c2cn[nH]c2)cc1Nc1ncc(Cl)c(Nc2ccccc2P(C)(C)=O)n1

>  <class name>
Satisfied

$$$$
>  <molecule>
COc1cc(N2CCOCC2)c(-c2cnn(C)c2)cc1Nc1ncc(Cl)c(Nc2ccccc2P(C)(C)=O)n1

>  <class name>
Not satisfied

$$$$
>  <molecule>
COc1cc(N2CCN(C)CC2)c(-c2cnn(C)c2)cc1Nc1ncc(Cl)c(Nc2ccccc2P(C)(C)=O)n1

>  <class name>
Satisfied

$$$$
>  <molecule>
COc1cc(N2CCC(N3CCN(C)CC3)CC2)c(-c2cn[nH]c2)cc1Nc1ncc(Cl)c(Nc2ccccc2P(C)(C)=O)n1

>  <class name>
Satisfied

$$$$
>  <molecule>
COc1cc(N2CCC(N3CCN(C)CC3)CC2)c(-c2cnn(C)c2)cc1Nc1ncc(Cl)c(Nc2ccccc2P(C)(C)=O)n1

>  <class name>
Satisfied

$$$$
>  <molecule>
COc1cc(N2CCOCC2)c(-c2cn[nH]c2)cc1Nc1ncc(Cl)c(Nc2ccccc2P(C)(C)=O)n1

>  <class name>
Not satisfied

$$$$
>  <molecule>
COc1cc(N2CCC(N3CCN(C)CC3)CC2)ccc1Nc1ncc(Cl)c(Nc2ccccc2P(C)(C)=O)n1 [BRIGATINIB]

>  <class name>
Not satisfied

$$$$

###

- test name: Plasma protein binding in human plasma assessed as unbound fraction
- Assay type: ADME, cell-free

>  <input smiles>
COc1cc(N2CCC(N3CCN(C)CC3)CC2)ccc1Nc1ncc(Cl)c(Nc2ccccc2P(C)(C)=O)n1

>  <fraction unbound>
0.155

$$$$

###

- test name: Intrinsic clearance in rat hepatocyte measured per 10^6 cells
- Type: ADME, tissue-based
- condition set: hepatocytes
measured quantity: CLH

>  <input smiles>
CCP(=O)(CC)c1ccccc1Nc1nc(Nc2cc(-c3cnn(C)c3)c(N3CCOCC3)cc2OC)ncc1Cl

>  <measurement>
67 uL/min/10^6 cells

$$$$
>  <input smiles>
COc1cc(N2CCOCC2)c(-c2cnn(C)c2)cc1Nc1ncc(Cl)c(Nc2ccccc2P(C)(C)=O)n1

>  <measurement>
16 uL/min/10^6 cells

$$$$
>  <input smiles>
COc1cc(N2CCC(N(C)C)CC2)c(-c2cnn(C)c2)cc1Nc1ncc(Cl)c(Nc2ccccc2P(C)(C)=O)n1

>  <measurement>
< 1 uL/min/10^6 cells

$$$$
>  <input smiles>
COc1cc(N2CCN(C)CC2)c(-c2cnn(C)c2)cc1Nc1ncc(Cl)c(Nc2ccccc2P(C)(C)=O)n1

>  <measurement>
< 1 uL/min/10^6 cells

$$$$
>  <input smiles>
COc1cc(N2CCC(N3CCN(C)CC3)CC2)c(-c2cnn(C)c2)cc1Nc1ncc(Cl)c(Nc2ccccc2P(C)(C)=O)n1

>  <measurement>
< 1 uL/min/10^6 cells

$$$$
>  <input smiles>
COc1cc(N2CCC(N(C)C)CC2)c(-c2cn[nH]c2)cc1Nc1ncc(Cl)c(Nc2ccccc2P(C)(C)=O)n1

>  <measurement>
< 1 uL/min/10^6 cells

$$$$

###

- test name: Lipophilicity, log D of the compound at pH 7.4
- Type: physicochemical
- condition set: buffer

>  <input smiles>
COc1cc(N2CCOCC2)c(-c2cn[nH]c2)cc1Nc1ncc(Cl)c(Nc2ccccc2P(C)(C)=O)n1

>  <logD>
3.4

$$$$
>  <input smiles>
COc1cc(N2CCC(N3CCN(C)CC3)CC2)c(-c2cnn(C)c2)cc1Nc1ncc(Cl)c(Nc2ccccc2P(C)(C)=O)n1

>  <logD>
2.7

$$$$
>  <input smiles>
COc1cc(N2CCC(N3CCN(C)CC3)CC2)ccc1Nc1ncc(Cl)c(Nc2ccccc2P(C)(C)=O)n1

>  <logD>
2.3

$$$$
>  <input smiles>
COc1cc(N2CCOCC2)c(-c2cnn(C)c2)cc1Nc1ncc(Cl)c(Nc2ccccc2P(C)(C)=O)n1

>  <logD>
3

$$$$
>  <input smiles>
CCP(=O)(CC)c1ccccc1Nc1nc(Nc2cc(-c3cnn(C)c3)c(N3CCOCC3)cc2OC)ncc1Cl

>  <logD>
4

$$$$
>  <input smiles>
COc1cc(N2CCC(N(C)C)CC2)c(-c2cn[nH]c2)cc1Nc1ncc(Cl)c(Nc2ccccc2P(C)(C)=O)n1

>  <logD>
1.8

$$$$
>  <input smiles>
COc1cc(N2CCC(N(C)C)CC2)c(-c2cnn(C)c2)cc1Nc1ncc(Cl)c(Nc2ccccc2P(C)(C)=O)n1

>  <logD>
1.9

$$$$
>  <input smiles>
COc1cc(N2CCN(C)CC2)c(-c2cnn(C)c2)cc1Nc1ncc(Cl)c(Nc2ccccc2P(C)(C)=O)n1

>  <logD>
2.4

$$$$
>  <input smiles>
COc1cc(N2CCC(N3CCN(C)CC3)CC2)c(-c2cn[nH]c2)cc1Nc1ncc(Cl)c(Nc2ccccc2P(C)(C)=O)n1

>  <logD>
2.5

$$$$

###

Papp A→B at 10 µM overview
- test name: Intrinsic permeability of compound across apical to basolateral side in human Caco-2 cells
- Type: ADME, cell-based
- condition set: read-out: permeability
measured quantity: Papp A→B at 10 µM

>  <input smiles>
COc1cc(N2CCOCC2)c(-c2cn[nH]c2)cc1Nc1ncc(Cl)c(Nc2ccccc2P(C)(C)=O)n1

>  <measurement>
18 ×10⁻⁶ cm/s

$$$$
>  <input smiles>
COc1cc(N2CCC(N(C)C)CC2)c(-c2cnn(C)c2)cc1Nc1ncc(Cl)c(Nc2ccccc2P(C)(C)=O)n1

>  <measurement>
< 0.24 ×10⁻⁶ cm/s

$$$$
>  <input smiles>
COc1cc(N2CCC(N3CCN(C)CC3)CC2)c(-c2cnn(C)c2)cc1Nc1ncc(Cl)c(Nc2ccccc2P(C)(C)=O)n1

>  <measurement>
< 0.62 ×10⁻⁶ cm/s

$$$$
